Data origin: patent US20260028391A1

% binding values for the binders below.
- system_under_test: T1, RSV F B N208S (RSV B)
- T1 construct: whole, on cells; also called mutant N208S
- test_summary: FACS, % binding to RSV F B variants
measure: % binding

binder="MPK65-v2-v3.1 (antibody, V domains shown) VH: QVPLVQSGAEVKKPGESLKISCKGSGYSFISYWIGWVRQMPGKGLEWMGVIYPFDADTKYSPSFQGHVTISADKSSNTAYVQWSSLKASDTAMYYCARFTFGIAVVTDDVSGEGQAFEIWGQGTMVTVSS VL: EIVMMQSPATLSVSPGERATLSCRASQSVAGNLAWYQQRPGQAPRLLIYGASTRATGVPARFSGSGSETEFTLTISSLQSEDFAVYYCHQYSNWPQAFGQGTRLDIK" recorded_measurement=0.029%
binder="MPK65-v2-v1.2 (antibody, V domains shown) VH: QVPLVQSGAEVKKPGESLKISCKGSGYSFINYWIGWVRQMPGKGLEWMGVIYPFDSDTKYSPSFQGHVTISADKSSNTAYVQWSSLKASDTAMYYCARFTFGIAVVTDDVSGEGQAFEIWGQGTMVTVSS VL: QIVMMQSPATLSVSPGERATLSCRASQSVAGNLAWYQQRPGQAPRLLIYGASTRATGVPARFSGSGSETEFTLTISSLQSEDFAVYYCHQYSNLPQAFGQGTRLDIK" recorded_measurement=0.041%
binder="MPK201-v1.2 (antibody, V domains shown) VH: EVQLVQSGAEVKKPGESLKISCQGSGYSFINYWIGWVRQKPGKGLEWMGIIYPFDSETKYSPSFQGHVTFSADKSINTAYVQWSSLRASDTAMYYCARFTFGLAVTTADVSGEGQAFEIWGQGTMVTVSS VL: QIVMMQSPATLSVSPGERATLSCRASQSVAGNLAWYQQRPGQAPRLLVYGASTRASGVPARFSGSGSETEFTLTISSLQSEDFAVYYCHHYSDLPQAFGQGTRLDIK" recorded_measurement=14.4%
binder="MPK190-v1.3-rIgG1m17,1-LS (antibody, V domains shown) VH: QVQLVESGGGLVKPGGSLTLSCAASGFSISGYGMNWVRQAPGRGLEWVASISASSTYIYYADSMKGRFTISRDNGKTSLYLQMKSLRAEDTAVYYCARAPIEPPYFDLWGRGTLVTVSS VL: QSVLTQPPSVSGAPGQRVTISCTGSSSNIGAGYDVHWYQHLPGKAPKVLIYGNTNRPSVVPDRFSGSNSGASASLAISGLQAEDEADYFCQSYDRRLSGPIFGGGTKLTVLG" recorded_measurement=63.4%
binder="MPK201-v4.1 (antibody, V domains shown) VH: QVQLVQSGAEVKKPGESLKISCQGSGYSFISYWIGWVRQKPGKGLEWMGIIYPFDSETKYSPSFQGHVTFSADKSINTAYVQWSSLRASDTAMYYCARFTFGLAVTTADVSGEGQAFEIWGQGTMVTVSS VL: EIVMMQSPATLSVSPGERATLSCRASQSVAGNLAWYQQRPGQAPRLLVYGASTRASGVPARFSGSGSETEFTLTISSLQSEDFAVYYCHHYSDWPQAFGQGTRLDIK" recorded_measurement=0.016%
binder="MPK176-v1.3 (antibody, V domains shown) VH: QVQLVQSGAEVKKPGASVRVSCKASGYTLTAYGISWVRQAPGQGLEWMGWISPKHGNTHYAQRFQGRVTMTTDTSTSTAYMELRSLRPDDTAVYFCAREGVDIMAVPWYFDYWGQGTLVAVSS VL: SYVLTQPPSVSVAPGQTARISCGGNNIGSKSVHWYQQKPGQAPVVVVYDDSKRPSGIPERFSGSNSGNTATLTISGVEAGDEADYFCQVWDSATDHWVFGGGTKLTVL" recorded_measurement=60.4%
